All values here come from ChEMBL document CHEMBL1132561.

Could you please report measured pIC50 for the items listed next?
# Target: Muscarinic acetylcholine receptor M2 (Homo sapiens)
# Sequence (P08172 whole entry): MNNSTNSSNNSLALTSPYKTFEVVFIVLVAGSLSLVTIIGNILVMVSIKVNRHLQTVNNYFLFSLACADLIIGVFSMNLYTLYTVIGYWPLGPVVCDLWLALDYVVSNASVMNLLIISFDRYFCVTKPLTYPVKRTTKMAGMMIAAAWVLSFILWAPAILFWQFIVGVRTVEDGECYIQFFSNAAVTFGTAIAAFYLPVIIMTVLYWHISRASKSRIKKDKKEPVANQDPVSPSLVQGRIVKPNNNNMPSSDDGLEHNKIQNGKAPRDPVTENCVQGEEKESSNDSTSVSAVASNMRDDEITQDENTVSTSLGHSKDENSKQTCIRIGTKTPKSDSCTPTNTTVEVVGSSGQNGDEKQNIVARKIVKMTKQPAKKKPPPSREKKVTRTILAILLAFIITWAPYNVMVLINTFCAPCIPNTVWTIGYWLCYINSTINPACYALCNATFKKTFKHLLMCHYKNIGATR
# Method: biochemical
# Description: Displacement of [3H]NMS binding to human Muscarinic acetylcholine receptor M2 using membranes from transfected CHO cells
Give bare numbers, as −log10 of the molar value.

Sample records with pIC50:
>  <Compound>
CCN1CC=C(c2ccccc2)C(C(=O)OCC(c2ccccc2)c2ccccc2)C1 (stereo not drawn)

>  <Measured quantity>
pIC50

>  <Recorded result>
6.32

$$$$
>  <Compound>
CCN1CCC(c2ccccc2)=C(C(=O)OCc2ccccc2)C1

>  <Measured quantity>
pIC50

>  <Recorded result>
6.35

$$$$
>  <Compound>
CCN1CCC(c2ccccc2)=C(C(=O)OCCCc2ccccc2)C1

>  <Measured quantity>
pIC50

>  <Recorded result>
5.98

$$$$

Please go through the list and note pIC50 for each compound.
1. CCCCCCCCOC(=O)C1=C(c2ccccc2)CCN(CC)C1
2. CCN1CC=C(c2ccccc2)C(C(=O)OCCCc2ccccc2)C1 (stereo not drawn)
3. CCN1CC=C(c2ccccc2)C(C(=O)OCc2ccccc2)C1 (stereo not drawn)

7.28
5.65
6.62

Quick one: give me pIC50 for each item below, same order please.
1. CCCCCCOC(=O)[C@H]1CN(CC)CC[C@H]1c1ccccc1
2. CCN1CCC(c2ccccc2)=C(C(=O)OCC(c2ccccc2)c2ccccc2)C1

1. 6.39
2. 5.59

====

Exercise: for every item that follows, state its recorded IC50.
# Target: Muscarinic acetylcholine receptor M4 (Homo sapiens, UniProt P08173)
# Sequence (P08173 whole entry): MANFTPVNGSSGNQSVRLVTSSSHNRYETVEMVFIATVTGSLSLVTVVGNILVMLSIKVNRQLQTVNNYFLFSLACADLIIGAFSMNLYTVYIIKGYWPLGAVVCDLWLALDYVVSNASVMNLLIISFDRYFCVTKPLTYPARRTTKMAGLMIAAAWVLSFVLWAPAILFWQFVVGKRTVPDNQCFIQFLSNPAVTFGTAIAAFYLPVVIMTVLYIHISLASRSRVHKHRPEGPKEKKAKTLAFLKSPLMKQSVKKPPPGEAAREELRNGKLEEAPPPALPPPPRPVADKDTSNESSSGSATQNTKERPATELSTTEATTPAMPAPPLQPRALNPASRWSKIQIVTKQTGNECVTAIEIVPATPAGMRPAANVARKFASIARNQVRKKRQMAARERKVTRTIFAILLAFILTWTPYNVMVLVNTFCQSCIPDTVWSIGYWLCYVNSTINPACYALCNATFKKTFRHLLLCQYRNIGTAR
# Method: biochemical
# Description: Displacement of [3H]NMS binding to human Muscarinic acetylcholine receptor M4 using membranes from transfected CHO cells
One number for each entry, in nM.

Guide cases for IC50, answers given:
>  <Compound>
CCCCCCOC(=O)[C@H]1CN(CC)CC[C@H]1c1ccccc1

>  <IC50, nM>
573

$$$$
>  <Compound>
CCN1CCC(c2ccccc2)=C(C(=O)OCCCc2ccccc2)C1

>  <IC50, nM>
1160

$$$$
>  <Compound>
CCN1CCC(c2ccccc2)=C(C(=O)OCc2ccccc2)C1

>  <IC50, nM>
473

$$$$

// for each compound below, give its IC50
1. CCN1CC=C(c2ccccc2)C(C(=O)OCCCc2ccccc2)C1 (centres undefined)
2. CCCCCCCCOC(=O)C1CN(CC)CC=C1c1ccccc1 (centres undefined)
3. CCN1CC=C(c2ccccc2)C(C(=O)OCC(c2ccccc2)c2ccccc2)C1 (centres undefined)
4. CCN1CC=C(c2ccccc2)C(C(=O)OCc2ccccc2)C1 (centres undefined)
5. CCN1CCC(c2ccccc2)=C(C(=O)OCC(c2ccccc2)c2ccccc2)C1
6. CCCCCCCCOC(=O)C1=C(c2ccccc2)CCN(CC)C1

1. 1130
2. 1250
3. 4160
4. 146
5. 7710
6. 259
